Test system: Haemophilus influenzae (H. influenzae) 49247
Assay: Antibacterial activity, MIC, H. influenzae 49247
Assay type: cell-based
Settings: Haemophilus influenzae; H. influenzae 49247; read-out: MIC 49247
readout: MIC

compound	target_or_system	MIC
Cc1cc(C(=O)O)c(=O)[nH]c1-c1ccc(N2CCOCC2)c(F)c1	Haemophilus influenzae (H. influenzae) 49247	< 1 µg/mL

// input: 6 compounds below; output: MIC for each
1. CCc1c(-c2ccc(N(C)C)cc2)[nH]c(=O)c(C(=O)O)c1OC
2. CCc1cc(C(=O)O)c(=O)[nH]c1-c1ccc(N2CCC[C@H]2C(F)(F)F)cc1
3. CCc1cc(C(=O)O)c(=O)[nH]c1-c1ccc(N(C)C)c(F)c1
4. CCCc1c(-c2ccc(N(C)C)cc2)[nH]c(=O)c(C(=O)O)c1O
5. CCc1cc(C(=O)O)c(=O)[nH]c1-c1ccc(N2CCC(N3CCOCC3)C2)cc1.O=C(O)C(F)(F)F (stereo not drawn)
6. CCc1c(-c2ccc(N3CCNCC3)cc2)[nH]c(=O)c(C(=O)O)c1O.O=C(O)C(F)(F)F

1. 3.5 to 12.5 µg/mL
2. 3.5 to 12.5 µg/mL
3. < 1 µg/mL
4. < 1 µg/mL
5. < 1 µg/mL
6. 3.5 to 12.5 µg/mL

---

Exercise: state measured MIC for each of the molecules provided.
System: super sensitive Gram-negative Escherichia coli (E. coli) BAS849
Assay: Antibacterial activity, microbroth dilution MIC, E. coli BAS849
Type: cell-based
Details: Escherichia coli; E. coli BAS849, microbroth dilution; read-out: MIC, BAS849

Below are worked cases with known answers.
molecule	target_or_system	experimental_result
CCc1c(-c2ccc(N3CCCC3)cc2OC)[nH]c(=O)c(C(=O)O)c1O	super sensitive Gram-negative Escherichia coli (E. coli) BAS849	3.5 to 12.5 mg/L
CCc1c(-c2ccc(N3CCCCC3)cc2F)[nH]c(=O)c(C(=O)O)c1O	super sensitive Gram-negative Escherichia coli (E. coli) BAS849	1 to 3.5 mg/L
CCc1c(-c2ccc(N3CC4(CCCN4)C3)cc2)[nH]c(=O)c(C(=O)O)c1O	super sensitive Gram-negative Escherichia coli (E. coli) BAS849	1 to 3.5 mg/L
CCc1cc(C(=O)O)c(=O)[nH]c1-c1ccc(N2C[C@H]3C[C@@H](N)[C@H]3C2)cc1	super sensitive Gram-negative Escherichia coli (E. coli) BAS849	< 1 mg/L

// input: 4 molecules below; output: MIC for each
1. CCc1c(-c2ccc(-n3ccnc3)cc2)[nH]c(=O)c(C(=O)O)c1O
2. CCc1cc(C(=O)O)c(=O)[nH]c1-c1ccc(N2CCC(CNCc3ccccc3F)C2)cc1 (centres unmarked)
3. CN(C)c1ccc(-c2[nH]c(=O)c(C(=O)O)cc2Cc2ccccc2)cc1
4. CCc1c(-c2ccc(N3CCC(C4(N(C)C)CC4)C3)cc2)[nH]c(=O)c(C(=O)O)c1O (centres unmarked)

1: 1 to 3.5 mg/L; 2: < 1 mg/L; 3: 12.5 to 150 mg/L; 4: < 1 mg/L

---

System: Neisseria meningitidis (N. meningitidis) 13090
Test: Antibacterial activity, MIC, N. meningitidis 13090
Assay type: cell-based
Details: Neisseria meningitidis; N. meningitidis 13090; read-out: MIC 13090
readout: MIC

compound	target_or_system	MIC
CCc1c(-c2ccc(N(C)C)cc2)[nH]c(=O)c(C(=O)O)c1OC [Cpd 298]	Neisseria meningitidis (N. meningitidis) 13090	3.5 to 12.5 µg/mL
CCc1cc(C(=O)O)c(=O)[nH]c1-c1ccc(N2CCC[C@@H]2COC)cc1 [Cpd 147]	Neisseria meningitidis (N. meningitidis) 13090	< 1 µg/mL
CCc1c(-c2ccc(N3C[C@H]4CCC[C@H](N)[C@H]4C3)cc2)[nH]c(=O)c(C(=O)O)c1O.Cl [Cpd 258]	Neisseria meningitidis (N. meningitidis) 13090	< 1 µg/mL
CCc1cc(C(=O)O)c(=O)[nH]c1-c1ccc(N2CCC(CNCc3ccccc3)C2)cc1.Cl (stereo not shown) [Cpd 182]	Neisseria meningitidis (N. meningitidis) 13090	< 1 µg/mL
CCc1cc(C(=O)O)c(=O)[nH]c1-c1ccc(N2CCC[C@@H]2C(F)(F)F)cc1 [Cpd 141]	Neisseria meningitidis (N. meningitidis) 13090	< 1 µg/mL
CCc1cc(C(=O)O)c(=O)[nH]c1-c1ccc(N2CCC[C@H]2C(=O)O)cc1 [Cpd 157]	Neisseria meningitidis (N. meningitidis) 13090	< 1 µg/mL
CCc1cc(C(=O)O)c(=O)[nH]c1-c1ccc(N2C[C@H]3CCN(C)[C@H]3C2)cc1.O=C(O)C(F)(F)F [Cpd 187]	Neisseria meningitidis (N. meningitidis) 13090	< 1 µg/mL
CCc1c(-c2ccc(N3CCC(CNC)C3)cc2)[nH]c(=O)c(C(=O)O)c1O.Cl (stereo not shown) [Cpd 254]	Neisseria meningitidis (N. meningitidis) 13090	1 to 3.5 µg/mL
CCc1cc(C(=O)O)c(=O)[nH]c1-c1ccc(N2CCC2)cc1 [Cpd 111]	Neisseria meningitidis (N. meningitidis) 13090	< 1 µg/mL
CCc1c(-c2ccc(N(C)C)nc2)[nH]c(=O)c(C(=O)O)c1O [Cpd 87]	Neisseria meningitidis (N. meningitidis) 13090	< 1 µg/mL

// input: 7 compounds below; output: MIC for each
1. CCc1c(-c2ccc(N3C[C@@H]4[C@@H](N)[C@@H]4C3)cc2)[nH]c(=O)c(C(=O)O)c1O [Cpd 285]
2. CCc1c(-c2ccc(N3C[C@@H](O)[C@@H](O)C3)cc2)[nH]c(=O)c(C(=O)O)c1O [Cpd 304]
3. CCc1cc(C(=O)O)c(=O)[nH]c1-c1ccc(N2CCCC2c2ccccc2)cc1 (stereo not shown) [Cpd 145]
4. CN(C)c1ccc(-c2[nH]c(=O)c(C(=O)O)cc2C(=O)O)cc1 [Cpd 11]
5. CCc1c(-c2ccc(N3C[C@H]4CC[C@H](N)[C@H]4C3)cc2)[nH]c(=O)c(C(=O)O)c1O.O=C(O)C(F)(F)F [Cpd 265]
6. CCc1cc(C(=O)O)c(=O)[nH]c1-c1ccc(N2CCOCC2)c(F)c1 [Cpd 84]
7. CCc1cc(C(=O)O)c(=O)[nH]c1-c1ccc(N2CCN(C(=O)OC(C)(C)C)CC2)cc1 [Cpd 102]

< 1 µg/mL
< 1 µg/mL
< 1 µg/mL
12.5 to 150 µg/mL
1 to 3.5 µg/mL
1 to 3.5 µg/mL
1 to 3.5 µg/mL

// input: 8 compounds below; output: MIC for each
1. Cc1cc(C(=O)O)c(=O)[nH]c1-c1ccc(N2CCOCC2)c(F)c1 [Cpd 89]
2. CCc1c(-c2ccc(N3CCCCC3)cc2)[nH]c(=O)c(C(=O)O)c1O [Cpd 109]
3. CC(C)c1c(-c2ccc(N(C)C)cc2)[nH]c(=O)c(C(=O)O)c1O [Cpd 96]
4. CCc1c(-c2ccc(N3CCNCC3)cc2)[nH]c(=O)c(C(=O)O)c1O.O=C(O)C(F)(F)F [Cpd 105]
5. CCc1c(-c2ccc(-n3ccnc3)cc2)[nH]c(=O)c(C(=O)O)c1O [Cpd 107]
6. CCc1c(-c2ccc(N3CCC3)cc2)[nH]c(=O)c(C(=O)O)c1O [Cpd 83]
7. CCc1c(-c2ccc(N(CC)CC)cc2)[nH]c(=O)c(C(=O)O)c1O [Cpd 98]
8. CCc1cc(C(=O)O)c(=O)[nH]c1-c1ccc(N2C[C@@H]3[C@@H](N)[C@@H]3C2)cc1 [Cpd 177]

1: 12.5 to 150 µg/mL; 2: < 1 µg/mL; 3: < 1 µg/mL; 4: 1 to 3.5 µg/mL; 5: < 1 µg/mL; 6: < 1 µg/mL; 7: < 1 µg/mL; 8: < 1 µg/mL

// input: 5 compounds below; output: MIC for each
1. CCc1cc(C(=O)O)c(=O)[nH]c1-c1ccc(-n2cccc2)cc1 [Cpd 101]
2. CCc1cc(C(=O)O)c(=O)[nH]c1-c1ccc(N(C)C)nc1 [Cpd 86]
3. CCc1cc(C(=O)O)c(=O)[nH]c1-c1ccc(N2CC[C@H](N(C)C)C2)cc1.Cl [Cpd 151]
4. CCc1c(-c2ccc(N3C[C@H]4CCC[C@H](NC)[C@H]4C3)cc2)[nH]c(=O)c(C(=O)O)c1O.Cl [Cpd 268]
5. CCc1cc(C(=O)O)c(=O)[nH]c1-c1ccc(N2CC3CC2CN3)cc1.O=C(O)C(F)(F)F (stereo not shown) [Cpd 138]

1. < 1 µg/mL
2. < 1 µg/mL
3. < 1 µg/mL
4. 3.5 to 12.5 µg/mL
5. 12.5 to 150 µg/mL

// input: 2 compounds below; output: MIC for each
1. CCc1cc(C(=O)O)c(=O)[nH]c1-c1ccc(N2CCCC2=O)cc1 [Cpd 114]
2. CCc1c(-c2ccc(N3C[C@H]4CN(C)C[C@H]4C3)cc2)[nH]c(=O)c(C(=O)O)c1O.Cl [Cpd 273]

["< 1 µg/mL", "1 to 3.5 µg/mL"]

// input: 2 compounds below; output: MIC for each
1. CCc1c(-c2ccc(N3CCCC3)cc2)[nH]c(=O)c(C(=O)O)c1O [Cpd 100]
2. CCc1c(-c2ccc(N3CCC(C(C)(C)N)C3)cc2)[nH]c(=O)c(C(=O)O)c1O.Cl (stereo not shown) [Cpd 279]

1. < 1 µg/mL
2. 12.5 to 150 µg/mL
